Taken from patent US20120277143A1.

TARC expression IC50 by entry:
- Tested on: human IL13 (human, UniProt P35225 35-146, biotinylated in the SPR assays (sites not given))
- Sequence (P35225 other isoform, or with tags, fused parts or gaps limits assumed): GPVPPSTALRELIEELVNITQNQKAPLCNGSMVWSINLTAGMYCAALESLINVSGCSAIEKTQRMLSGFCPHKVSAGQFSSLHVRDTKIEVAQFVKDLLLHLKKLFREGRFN
- Experiment notes: cell-based or functional assay
I only need the number, in nM, no unit after it.

Previously resolved entries follow.
IL13 binding protein 6G9 (designed binder) DLGKKLLEAARAGQDDEVRILMANGADVNARDSYGSTPLHLAAREGHLEIVEVLLKYGADVNAKDMIGDTPLHLAAYRGHLEIVEVLLKNGADVNASDITGETPLHLAAQIGHLEIVEVLLKYGADVNAQDKFGKTAFDISIDNGNEDLAEILQKLN    0.064
9E11 (designed binder, N-Cap-(AR)3-C-Cap) DLGKKLLEAARAGQDDEVRILMANGADVNASDIYGSTPLHLAARHGHLEIVEVLLKNGADVNANDMIGDTPLHLAAYHGHLEIVEVLLKHGADVNASDITGETPLHLAAHNGHLEIVEVLLKYGADVNAQDKFGKTAFDISIDNGNEDLAEILQKLN    0.109
6D4 (designed binder, N-Cap-(AR)3-C-Cap) DLGKKLLEAARAGQDDEVRILMANGADVNAADDYGSTPLHLAARSGHLEIVEVLLKHGADVNANDFIGDTPLHLAAYNGHLEIVEVLLKNGADVNATDITGETPLHLAAERGHLEIVEVLLKNGADVNTQDKFGKTAFDISIDNGNEDLAEILQKLN    0.0833
5B9 (designed binder, N-Cap-(AR)3-C-Cap) DLGKKLLEAARAGQDDEVRILMANGADVNATDVFGSTPLHLAARHGHLEIVEVLLKHGADVNATDFIGDTPLHLAAYHGHLEIVEVLLKHGADVNAKNGETPLHLAAYHGHPDIVEVLLKHGADVNAQDKFGKTAFDISIDNGNEDLAEILQKLN    0.372
7G11 (designed binder, ankyrin repeat protein) DLGKKLLEAARAGQDDEVRILMANGADVNATDEFDSTPLHLAARHGHLEIVEVLLKYGADVNAADFIGDTPLHLAAYRGHLEIVEVLLKCGVDVNADDHGDTPLHLAASMGHLEIVEVLLKNGADVNAQDKFGKTAFDISIDNGNEDLAEILQKLN    0.0196

Give the measured TARC expression IC50 for 5H7 (designed binder, N-Cap-(AR)3-C-Cap) DLGKKLLEAARAGQDDEVRILMANGADVNAADMYGTTPQHLAARTGHLEIVEVLLKYGADVNAADFLGDTPLHLAAYHGHLEIVEVLLKHGADVNASDITGETPLHLAAHLGHLEIVEVLLKYGADVNAQDKFGKTAFDISIDNGNEDLAEILQKLN
0.132

Give the measured TARC expression IC50 for 5D12 (designed binder, N-Cap-(AR)3-C-Cap) DLGKKLLEAARAGQDDEVRILMANGADVNAVDDYGSTPLHLAARQGHLEIVEVLLKNGADVNADDFIGDTPLHLAAFKGHLEIVEVLLKNGADVNASDITGETPLHLAATAGHLEIVEVLLKHGADVNAQDKFGKTAFDISIDNGNEDLAEILQKLN
0.0341

Give the measured TARC expression IC50 for 10A6 (designed binder, N-Cap-(AR)2-C-Cap, only 2 ARs) DLGKKLLEAARAGQDDEVRILMANGADVNAIDHFDSTPLHLAARHGHLEIVEVLLKNGADVNADDFLGDTPLHLAAYHGHLDIVEVLLKHGADVNAQDKFGKTAFDISIDNGNEDLAEILQKLN
0.123

Give the measured TARC expression IC50 for 7D2 (designed binder, N-Cap-(AR)3-C-Cap) DLGKKLLEAARAGQDDEVRILMANGADVNAFDDFGSTPLHLAARSGHLEIVEVLLKHGADVNAHDMIGDTPLHLAAYHGHLEIVEVLLKYGADVNAKDTSGTTPLHLAADSGHLEIVEVLLKHGADVNAQDKFGKTAFDISIDNGNEDLAEILQKLN
0.0146
